- Study System: T1, full-length human FGFR1c on HEK293/hFGFR1c/SRE-luc cells (human, UniProt P11362 22-822)
- T1 construct: amino acids 1-733 of NP_075593
- T1 sequence (P11362 other isoform, or with tags, fused parts or gaps limits assumed): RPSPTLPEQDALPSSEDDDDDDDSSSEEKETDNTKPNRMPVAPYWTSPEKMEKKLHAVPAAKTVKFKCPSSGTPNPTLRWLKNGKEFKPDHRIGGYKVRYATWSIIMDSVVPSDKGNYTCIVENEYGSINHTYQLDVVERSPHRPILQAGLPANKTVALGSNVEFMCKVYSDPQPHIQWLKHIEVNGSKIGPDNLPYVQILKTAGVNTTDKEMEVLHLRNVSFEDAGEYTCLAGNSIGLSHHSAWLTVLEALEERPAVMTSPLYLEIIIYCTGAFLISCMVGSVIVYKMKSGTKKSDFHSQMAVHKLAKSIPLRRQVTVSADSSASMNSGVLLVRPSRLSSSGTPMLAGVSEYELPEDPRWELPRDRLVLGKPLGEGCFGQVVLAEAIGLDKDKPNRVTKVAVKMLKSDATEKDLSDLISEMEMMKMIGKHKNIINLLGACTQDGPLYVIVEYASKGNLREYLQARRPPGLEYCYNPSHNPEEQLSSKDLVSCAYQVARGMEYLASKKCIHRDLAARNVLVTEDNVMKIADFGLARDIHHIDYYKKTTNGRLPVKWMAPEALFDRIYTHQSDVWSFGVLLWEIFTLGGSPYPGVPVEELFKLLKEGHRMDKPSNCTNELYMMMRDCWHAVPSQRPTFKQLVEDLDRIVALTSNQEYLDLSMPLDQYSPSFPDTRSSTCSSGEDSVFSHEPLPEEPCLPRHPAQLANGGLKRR
- Method: FACS on stable HEK293 cells
Measure: binding ratio to unstained cells
// return the numeric value with its unit appended

Field: example entries. Status: answers known.
[[record]]
binder = "H2aM8109N (antibody, V domains shown, mouse IgG2 Fc (H2aM prefix)) VH: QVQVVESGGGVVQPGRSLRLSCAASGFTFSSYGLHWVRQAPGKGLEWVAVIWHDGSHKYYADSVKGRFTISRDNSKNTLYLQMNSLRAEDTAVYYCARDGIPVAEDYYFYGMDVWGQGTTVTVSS VL: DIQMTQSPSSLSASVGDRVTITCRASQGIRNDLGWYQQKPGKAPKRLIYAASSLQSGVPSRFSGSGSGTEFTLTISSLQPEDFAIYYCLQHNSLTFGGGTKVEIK"
measure = "binding ratio to unstained cells"
result = "7 fold"

[[record]]
binder = "H2aM8093N (antibody, V domains shown, mouse IgG2 Fc (H2aM prefix)) VH: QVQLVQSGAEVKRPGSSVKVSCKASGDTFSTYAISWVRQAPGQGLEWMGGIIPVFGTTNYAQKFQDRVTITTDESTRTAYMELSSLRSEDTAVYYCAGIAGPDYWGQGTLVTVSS VL: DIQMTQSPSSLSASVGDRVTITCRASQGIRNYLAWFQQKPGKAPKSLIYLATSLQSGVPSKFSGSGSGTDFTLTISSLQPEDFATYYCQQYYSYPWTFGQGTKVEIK"
measure = "binding ratio to unstained cells"
result = "1 fold"

[[record]]
binder = "H2bM8833N (antibody, V domains shown, mouse IgG2 Fc (H2bM prefix)) VH: QVQLVESGGGVVQPGRSLRLSCAASGFTFSRYGIHWVRQAPGKGLEWVAVIWYDGSNKYYADSLKGRFTISRDNSKNTLYLQMNSLRAEDTAVYYCARDQGNYIDYWGQGTLVTVSS VL: AIQMTQSPSSLSASVGDRVTITCRTSQGIRNDLGWYQQKPGKVPKLLIYAASSLQSGVPSRFSGSGSGTDFTLTISSLQPEDFATYYCLQDYNYPFTFGPGTKVDIK"
measure = "binding ratio to unstained cells"
result = "9 fold"

[[record]]
binder = "H2aM8092N (antibody, V domains shown, mouse IgG2 Fc (H2aM prefix); also called H2M8092N) VH: QVQLQESGPGLVKPSETLSLTCTVSGGSISSYYWSWIRQPPGKGLDWIGHIYYSGTTYYNPSLKSRVSISLDTSKNQFSLKLSSVTAADTAVYYCARHLRGYSSGREFDYWGQGTLVTVSS VL: DIQMTQSPSSLSASVGGRVSLTCRASQSIFSYLNWYQQKPGKAPKLLIYAASNLQSGVPSRFSGSGSGTDFTLTISSLQPEDFATYSCQQSYNIPYTFGQGTKLEIK"
measure = "binding ratio to unstained cells"
result = "1 fold"


Attention now shifts to the item below.
Quick one: binding ratio to unstained cells of H4H8837P (antibody, V domains shown, human IgG4 Fc (H4H prefix)) VH: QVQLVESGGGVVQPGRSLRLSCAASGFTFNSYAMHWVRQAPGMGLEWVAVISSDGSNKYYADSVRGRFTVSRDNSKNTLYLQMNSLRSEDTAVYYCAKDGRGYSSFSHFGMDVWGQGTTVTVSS VL: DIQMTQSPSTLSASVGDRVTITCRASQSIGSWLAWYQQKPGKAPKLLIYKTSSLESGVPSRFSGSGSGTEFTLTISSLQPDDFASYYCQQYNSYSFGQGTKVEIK ? 2 fold
